These data points were gathered from patent US11547697B2.

Molecular target: p110δ/p85α (Homo sapiens (Human), UniProt O00329)
Sequence (O00329 whole entry): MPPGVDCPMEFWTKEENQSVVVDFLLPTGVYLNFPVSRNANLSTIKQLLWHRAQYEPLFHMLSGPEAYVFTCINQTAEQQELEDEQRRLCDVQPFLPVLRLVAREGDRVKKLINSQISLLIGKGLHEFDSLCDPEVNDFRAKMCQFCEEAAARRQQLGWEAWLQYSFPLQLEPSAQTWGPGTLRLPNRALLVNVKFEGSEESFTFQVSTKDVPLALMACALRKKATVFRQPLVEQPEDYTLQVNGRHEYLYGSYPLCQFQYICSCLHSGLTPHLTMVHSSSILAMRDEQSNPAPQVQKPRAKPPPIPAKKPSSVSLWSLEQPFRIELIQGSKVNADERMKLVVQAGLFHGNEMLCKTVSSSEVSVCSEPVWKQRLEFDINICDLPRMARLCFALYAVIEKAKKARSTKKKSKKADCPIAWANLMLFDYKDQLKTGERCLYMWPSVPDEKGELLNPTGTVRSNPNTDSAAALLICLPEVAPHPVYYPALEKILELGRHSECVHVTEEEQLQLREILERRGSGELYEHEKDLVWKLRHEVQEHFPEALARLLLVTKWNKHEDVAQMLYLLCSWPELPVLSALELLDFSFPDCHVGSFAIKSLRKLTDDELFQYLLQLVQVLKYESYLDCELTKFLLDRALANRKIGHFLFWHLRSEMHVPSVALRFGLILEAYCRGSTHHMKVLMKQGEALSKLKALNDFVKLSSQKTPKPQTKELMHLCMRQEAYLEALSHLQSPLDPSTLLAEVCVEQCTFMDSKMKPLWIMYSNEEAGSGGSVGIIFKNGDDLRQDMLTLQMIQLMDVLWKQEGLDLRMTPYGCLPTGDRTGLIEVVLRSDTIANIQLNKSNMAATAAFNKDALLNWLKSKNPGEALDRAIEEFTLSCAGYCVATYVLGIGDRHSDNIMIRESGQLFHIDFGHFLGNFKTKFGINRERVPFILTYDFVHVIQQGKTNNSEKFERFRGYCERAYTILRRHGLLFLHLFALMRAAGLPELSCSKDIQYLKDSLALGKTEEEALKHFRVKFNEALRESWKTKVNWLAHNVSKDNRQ
Sequence (P27986 whole entry partner): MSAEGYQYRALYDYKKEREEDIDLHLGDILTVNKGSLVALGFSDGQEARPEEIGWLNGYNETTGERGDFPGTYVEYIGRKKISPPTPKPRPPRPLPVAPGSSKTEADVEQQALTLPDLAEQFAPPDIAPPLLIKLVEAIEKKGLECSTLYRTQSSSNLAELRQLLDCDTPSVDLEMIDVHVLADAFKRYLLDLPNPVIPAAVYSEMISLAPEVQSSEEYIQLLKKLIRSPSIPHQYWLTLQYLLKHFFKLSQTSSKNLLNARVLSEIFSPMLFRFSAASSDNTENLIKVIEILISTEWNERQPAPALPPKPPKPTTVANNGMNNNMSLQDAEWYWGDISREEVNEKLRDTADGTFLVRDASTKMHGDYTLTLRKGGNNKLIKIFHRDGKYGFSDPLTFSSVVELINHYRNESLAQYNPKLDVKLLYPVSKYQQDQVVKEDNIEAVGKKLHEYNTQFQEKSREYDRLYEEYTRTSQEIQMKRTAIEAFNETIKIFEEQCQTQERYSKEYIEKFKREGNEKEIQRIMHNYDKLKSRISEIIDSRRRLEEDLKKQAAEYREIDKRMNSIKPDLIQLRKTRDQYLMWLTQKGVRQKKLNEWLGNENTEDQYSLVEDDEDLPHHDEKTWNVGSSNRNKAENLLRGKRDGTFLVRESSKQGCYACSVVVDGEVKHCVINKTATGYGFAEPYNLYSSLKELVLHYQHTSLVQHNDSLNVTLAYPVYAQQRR
Test: PI 3-Kinase (human) HTRF assay, p110δ/p85α
Type: biochemical
Settings: in vitro; read-out: PI3K δ IC50
pIC50: −log10 of the molar value.
metric_name: pIC50

Prompt: Indicate its recorded pIC50; the compound in question is Nc1nc2cc(-c3ccc4ncc(N5CCN(C(=O)C6(N)CC6)CC5)nc4c3)ccc2o1
Completion: > 5.00

----------
Biological target: p110γ (Homo sapiens (Human), UniProt P48736)
Sequence (P48736 whole entry): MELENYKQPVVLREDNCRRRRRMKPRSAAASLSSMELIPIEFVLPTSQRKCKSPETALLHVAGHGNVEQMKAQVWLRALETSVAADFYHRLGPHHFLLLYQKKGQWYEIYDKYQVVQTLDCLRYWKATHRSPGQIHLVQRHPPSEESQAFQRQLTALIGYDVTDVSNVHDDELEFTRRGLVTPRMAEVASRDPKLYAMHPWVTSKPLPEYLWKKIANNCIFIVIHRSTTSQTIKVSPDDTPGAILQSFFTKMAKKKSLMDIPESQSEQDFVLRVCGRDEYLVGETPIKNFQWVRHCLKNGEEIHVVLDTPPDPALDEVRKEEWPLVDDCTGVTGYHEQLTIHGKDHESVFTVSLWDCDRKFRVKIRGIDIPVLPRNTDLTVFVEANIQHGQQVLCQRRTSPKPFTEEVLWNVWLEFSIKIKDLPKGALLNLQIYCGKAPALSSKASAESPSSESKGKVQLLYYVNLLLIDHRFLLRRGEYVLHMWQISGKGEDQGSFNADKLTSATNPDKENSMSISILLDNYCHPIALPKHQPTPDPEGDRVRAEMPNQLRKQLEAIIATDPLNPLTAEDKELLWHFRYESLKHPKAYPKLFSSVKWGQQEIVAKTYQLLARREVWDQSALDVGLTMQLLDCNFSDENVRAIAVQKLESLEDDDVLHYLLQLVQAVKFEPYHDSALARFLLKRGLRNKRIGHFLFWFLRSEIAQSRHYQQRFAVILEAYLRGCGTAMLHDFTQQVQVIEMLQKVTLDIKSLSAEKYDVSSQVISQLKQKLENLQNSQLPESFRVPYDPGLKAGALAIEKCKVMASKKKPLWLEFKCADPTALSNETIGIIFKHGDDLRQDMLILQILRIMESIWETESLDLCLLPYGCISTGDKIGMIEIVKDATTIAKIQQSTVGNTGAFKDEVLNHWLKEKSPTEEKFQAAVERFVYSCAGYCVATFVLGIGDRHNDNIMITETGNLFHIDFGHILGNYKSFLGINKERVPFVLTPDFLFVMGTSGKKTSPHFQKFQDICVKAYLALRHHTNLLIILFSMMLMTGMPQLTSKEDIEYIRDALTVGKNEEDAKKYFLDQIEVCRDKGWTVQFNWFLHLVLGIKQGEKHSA
Assay: PI 3-Kinase (human) HTRF assay, p110γ
Format: biochemical
Conditions: in vitro; read-out: PI3K γ IC50
pIC50: −log10 of the molar value.
metric_name: pIC50

Field: example entries. Status: answers known.
>  <structure_smiles>
Nc1nc2cc(-c3ccc4ncc(C(=O)N5CCC5)n4c3)ccc2o1

>  <pIC50>
> 7.00

$$$$
>  <structure_smiles>
Nc1nc2cc(-c3ccc4ncc(C(=O)N(CCO)CCO)n4c3)ccc2o1

>  <pIC50>
> 5.00

$$$$
>  <structure_smiles>
CC(=O)Nc1nc2ccc(-c3ccc4nc(N)oc4c3)cc2s1

>  <pIC50>
> 7.00

$$$$

Prompt: Indicate its recorded pIC50; the molecule in question is CN1CCN(C2CN(c3cnc4ccc(-c5ccc6oc(N)nc6c5)cc4n3)C2)CC1=O
Completion: > 6.00

Prompt: Indicate its recorded pIC50; the molecule in question is CN(C)CC(=O)N1CCN(c2cnc3ccc(-c4ccc5oc(N)nc5c4)cc3n2)CC1
Completion: > 6.00

Prompt: Indicate its recorded pIC50; the molecule in question is CCN(CC)CCCNC(=O)c1cnc2ccc(-c3ccc4oc(N)nc4c3)cn12
Completion: > 5.00

Prompt: Indicate its recorded pIC50; the molecule in question is Nc1nc2cc(-c3ccc4ncc(N5CC(O)C5)nc4c3)ccc2o1
Completion: > 7.00

Prompt: Indicate its recorded pIC50; the molecule in question is Nc1ncc(-c2ccc3oc(N)nc3c2)cn1
Completion: > 5.00

Prompt: Indicate its recorded pIC50; the molecule in question is COCCN1CCN(c2cnc3ccc(-c4ccc5oc(N)nc5c4)cc3n2)CC1
Completion: > 6.00
